biological target: hEP4 (Homo sapiens, UniProt P35408)
Sequence (P35408 whole entry): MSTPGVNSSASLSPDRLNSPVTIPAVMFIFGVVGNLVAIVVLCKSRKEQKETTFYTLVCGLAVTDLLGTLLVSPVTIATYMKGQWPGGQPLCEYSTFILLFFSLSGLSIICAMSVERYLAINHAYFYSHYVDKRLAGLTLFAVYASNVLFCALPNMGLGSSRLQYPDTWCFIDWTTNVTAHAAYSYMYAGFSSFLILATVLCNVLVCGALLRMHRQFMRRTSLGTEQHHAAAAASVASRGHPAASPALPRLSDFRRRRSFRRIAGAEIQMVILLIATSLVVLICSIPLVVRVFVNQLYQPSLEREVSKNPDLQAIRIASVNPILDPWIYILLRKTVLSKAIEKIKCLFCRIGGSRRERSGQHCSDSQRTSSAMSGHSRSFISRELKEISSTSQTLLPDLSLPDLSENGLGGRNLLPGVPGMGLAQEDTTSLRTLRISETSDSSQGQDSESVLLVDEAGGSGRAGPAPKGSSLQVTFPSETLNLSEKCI
QUANTITY_MEASURED: Ki (nM)

In the examples that follow, each entry is paired with its recorded Ki.
C[C@H](NC(=O)c1cc(Cl)cnc1Oc1cccc(F)c1)c1ccc(C(=O)O)cc1 [Example 48] | 1
C[C@H](NC(=O)c1cc(Cl)ccc1Cc1cccc(Cl)c1)c1ccc(C(=O)O)cc1 [Example 148] | 0.7

I. C[C@H](NC(=O)c1cc(Cl)cnc1Oc1ccc(F)c(F)c1)c1ccc(C(=O)O)cc1 [Example 55]
II. C[C@H](NC(=O)c1cc(Cl)ccc1Oc1ccc(F)cc1)c1ccc(C(=O)O)cc1 [Example 68]
Q. Hi! Which is lower in terms of Ki, the first one I or the second one II ? I would appreciate it if you answered with the label of your choice.
A. I
(I: 0.7 nM, II: 2.4 nM)

* * *

biological target: hEP4 (Homo sapiens, UniProt P35408); experiment: cAMP assay in human EP4 transfectant (functional assay); type: cell-based; design: expressed in transfected cells; host or cells: HEK293 (hEP4 cells), selected with geneticin; settings: cAMP in HEK293 cells expressing human EP4; vs 1 nM PGE2
QUANTITY_MEASURED: IC50 (nM)

C[C@H](NC(=O)c1cc(Cl)cnc1Oc1cccc(F)c1)c1ccc(C(=O)NS(=O)(=O)c2cccc(Cl)c2)cc1 [Example 79] | 21
C[C@H](NC(=O)c1cc(Cl)cnc1Oc1cccc(F)c1)c1ccc(C(=O)O)cc1 [Example 48] | 19
C[C@H](NC(=O)c1cc(Cl)cnc1Oc1ccc(F)c(F)c1)c1ccc(C(=O)O)cc1 [Example 55] | 20
O=C(NCc1ccc(-c2nn[nH]n2)cc1)c1cc(Cl)cnc1Oc1ccc(F)cc1 [Example 74] | 140
C[C@H](NC(=O)c1cc(Cl)ccc1Oc1ccc(F)cc1)c1ccc(C(=O)O)cc1 [Example 68] | 43

a. O=C(NCc1ccc(-c2nn[nH]n2)cc1)c1cc(Cl)ccc1Oc1ccc(F)cc1 [Example 76]
b. C[C@H](NC(=O)c1cc(Cl)ccc1Cc1cccc(Cl)c1)c1ccc(C(=O)O)cc1 [Example 148]
Q. Between the entries labelled a and b , which has a larger IC50 value on record? Mark your answer with the label of the selected entry.
A. a

P. O=C(O)c1ccc(CNC(=O)c2cc(C(F)(F)F)cnc2Oc2ccc(F)cc2)cc1 [Example 56]
Q. C[C@H](NC(=O)c1cc(Cl)cnc1Oc1cccc(-c2nccs2)c1)c1ccc(C(=O)O)cc1 [Example 45]
R. N#Cc1cnc(Oc2ccc(F)cc2)c(C(=O)NCc2ccc(C(=O)O)cc2)c1 [Example 57]
Q. Output the entries ranked by IC50 from maximum down to minimum. In plain terms: list the labels in the order you were asked to.
A. R, P, Q
(R: 1800 nM, P: 820 nM, Q: 28 nM)
